Test: in vivo
Condition set: male, cynomolgus monkey, plasma, iv, 1 mg/kg
Assay endpoint: half-life (h)
State just the number; it will be interpreted in h.

Challenge: Field request: half-life | item: N#Cc1ccc(COc2cccc(C3CCN(Cc4nc5ccc(C(=O)O)cc5n4C[C@@H]4CCO4)CC3)n2)c(F)c1
Response given: 1.9

====

Test: Intrinsic metabolic clearance in human liver microsomes
Type: in vitro ADME
Condition set: human, liver microsomes, HLM CLint, scaled from in vitro half-life
Item-by-item account of CLint scaled
The reply should contain only the number, in mL/min/kg.

{"columns": ["Compound", "CLint scaled / mL/min/kg"],
 "data": [
  ["Cn1c(CN2CCC(c3cccc(OCc4ccc(Cl)cc4F)n3)CC2)nc2ccc(C(=O)O)nc21 [compound 5]", 29]
]}

Challenge: # input compound: Cn1c(CN2CCC(c3cccc(OCc4ccc(Cl)cc4F)n3)CC2)nc2ccncc21 [compound 3] ; wanted: its CLint scaled
Response given: 130

====

Test: in vivo
Condition set: male, Wistar-Han, rat, plasma, iv, 1 mg/kg
Assay endpoint: half-life (h)
Write the number in h without appending the unit.

Challenge: Given the entry N#Cc1ccc(COc2cccc(C3CCN(Cc4nc5ccc(C(=O)O)cc5n4C[C@@H]4CCO4)CC3)n2)c(F)c1 , report its measured half-life.
Response given: 1.1

====

Test: in vivo
Condition set: male, Wistar-Han, rat, plasma, iv, 1 mg/kg
Assay endpoint: clearance at 24 h (L/h/kg)
Give the quantity in L/h/kg, number only.

Challenge: Can you share its clearance at 24 h? I mean this compound: N#Cc1ccc(COc2cccc(C3CCN(Cc4nc5ccc(C(=O)O)cc5n4C[C@@H]4CCO4)CC3)n2)c(F)c1 [danuglipron]
Response given: 3.44

====

Test: in vivo
Condition set: male, cynomolgus monkey, plasma, iv, 1 mg/kg
Assay endpoint: clearance at 24 h (mL/min/kg)
# value in mL/min/kg; strip the unit string

Challenge: Reported clearance at 24 h, compound N#Cc1ccc(COc2cccc(C3CCN(Cc4nc5ccc(C(=O)O)cc5n4C[C@@H]4CCO4)CC3)n2)c(F)c1 [danuglipron] : ____
Response given: 13.8

====

Study target: UniProt P43220
Test: BETP-sensitized cAMP screening assay
Assay type: cell-based
Condition set: slope of concentration-response curve
Assay endpoint: SA cAMP + BETP slope
Field format: numeric only.

These recorded examples may help you get a feel for the data.
{"columns": ["Given smiles", "SA cAMP + BETP slope"],
 "data": [
  ["Cn1c(CN2CCC(c3cccc(OCc4ccc(Cl)cc4F)n3)CC2)nc2ccncc21", 0.89],
  ["Cn1c(CN2CCC(c3cccc(OCc4ccc(Cl)cc4F)n3)CC2)nc2nccc(NCC(=O)O)c21", 0.76],
  ["Cn1c(CN2CCC(c3cccc(OCc4ccc(Cl)cc4F)n3)CC2)nc2ccc(C(=O)O)nc21", 0.97]
]}

Challenge: Which measured SA cAMP + BETP slope belongs to N#Cc1ccc(COc2cccc(C3CCN(Cc4nc5ccc(C(=O)O)cc5n4C[C@@H]4CCO4)CC3)n2)c(F)c1 , tested on UniProt P43220?
Response given: 0.98

Challenge: SA cAMP + BETP slope of Cn1c(CN2CCC(c3nc(OCc4ccc(Cl)cc4F)ncc3F)CC2)nc2ccccc21 on UniProt P43220?
Response given: 1.3

====

Study target: human GLP-1R (Homo sapiens)
Sequence (P43220 24-463): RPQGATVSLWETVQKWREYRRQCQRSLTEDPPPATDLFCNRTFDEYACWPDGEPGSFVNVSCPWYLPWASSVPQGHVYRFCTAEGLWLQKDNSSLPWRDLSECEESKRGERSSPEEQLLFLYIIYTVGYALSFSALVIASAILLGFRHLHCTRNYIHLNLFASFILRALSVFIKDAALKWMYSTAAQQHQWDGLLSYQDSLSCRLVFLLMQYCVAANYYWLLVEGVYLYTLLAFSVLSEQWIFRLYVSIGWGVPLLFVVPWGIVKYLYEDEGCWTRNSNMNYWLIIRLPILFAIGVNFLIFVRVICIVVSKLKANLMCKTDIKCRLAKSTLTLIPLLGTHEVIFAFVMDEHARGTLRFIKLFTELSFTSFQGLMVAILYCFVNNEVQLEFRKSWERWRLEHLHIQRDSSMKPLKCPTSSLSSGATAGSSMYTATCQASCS
Condition set: slope of concentration-response curve
Assay endpoint: SA cAMP – BETP slope
In your answer, state the number alone without any accompanying words.

Challenge: Report SA cAMP – BETP slope for Cn1c(CN2CCC(c3cccc(OCc4ccc(Cl)cc4F)n3)CC2)nc2ccc(C(=O)O)nc21 [compound 5] please.
Response given: 1.1

Challenge: Quick one: SA cAMP – BETP slope for CCn1cncc1Cn1c(CN2CCC(c3cccc(OCc4ccc(F)cc4F)n3)CC2)nc2ccc(C(=O)O)cc21 [PF-06883365] ?
Response given: 0.98

Challenge: State the recorded SA cAMP – BETP slope for this entry: Cn1c(CN2CCC(c3cccc(OCc4ccc(Cl)cc4F)n3)CC2)nc2nccc(NCC(=O)O)c21 [compound 4]
Response given: 0.75

Challenge: Dear colleague, I am looking for the recorded SA cAMP – BETP slope of the following molecule: N#Cc1ccc(COc2cccc(C3CCN(Cc4nc5ccc(C(=O)O)cc5n4C[C@@H]4CCO4)CC3)n2)c(F)c1 [danuglipron]
Response given: 1.1

Challenge: What does the data say about its SA cAMP – BETP slope? Entry: Cn1c(CN2CCC(c3cccc(OCc4ccc(Cl)cc4F)n3)CC2)nc2ccncc21 [compound 3]
Response given: 1.2
